Here's a batch of compounds along with measured MIC for E. coli BW25113 ΔampC derivative JW4111-2.
One number for each entry, in µg/mL.

Solved entries:
CC1(C)SC2C(NC(=O)C(NC(=O)C3=C(O)CNC3=O)c3ccccc3)C(=O)N2C1C(=O)O (stereo not shown): 12.5
CC1(C)SC2C(NC(=O)C(NC(=O)C3=C(O)C4(CC4)NC3=O)c3ccccc3)C(=O)N2C1C(=O)O (stereo not shown): 12.5
CC1(C)SC2C(NC(=O)C(NC(=O)C3=C(O)C(Cc4ccccc4)NC3=O)c3ccccc3)C(=O)N2C1C(=O)O (stereo not shown): 6.25

Alright, here's another compound for you.
Request: Item under review: CC1(C)SC2C(NC(=O)C(NC(=O)C3=C(O)C(Cc4ccsc4)NC3=O)c3ccccc3)C(=O)N2C1C(=O)O (stereo not shown) . Reported MIC?
Response: 6.25

----------
System: E. coli BW25113 ΔtolC derivative JW5503-1
Experimental Details: MIC, microbroth dilution in Mueller-Hinton broth
Assay type: cell-based, Escherichia coli
Test Conditions: {}
Endpoint Name: MIC ECΔtolC MH+CCCP (mg/L)
Answers are plain numbers, in mg/L.

CC1(C)SC2C(NC(=O)C(NC(=O)C3=C(O)CN(c4ccccc4)C3=O)c3ccccc3)C(=O)N2C1C(=O)O (centres unmarked): 3.13
CC1NC(=O)C(C(=O)NC(C(=O)NC2C(=O)N3C2SC(C)(C)C3C(=O)O)c2ccccc2)=C1O (centres unmarked): 3.13
CC1(C)S[C@@H]2[C@H](NC(=O)[C@H](N)c3ccccc3)C(=O)N2[C@H]1C(=O)O [ampicillin, reference compound]: 1.56
CC(C)C1NC(=O)C(C(=O)NC(C(=O)NC2C(=O)N3C2SC(C)(C)C3C(=O)O)c2ccccc2)=C1O (centres unmarked): 1.56
CC1(C)SC2C(NC(=O)C(NC(=O)C3=C(O)C(Cc4ccc(F)cc4)NC3=O)c3ccccc3)C(=O)N2C1C(=O)O (centres unmarked): 1.56
CC1(C)SC2C(NC(=O)C(NC(=O)C3=C(O)C4CCCN4C3=O)c3ccccc3)C(=O)N2C1C(=O)O (centres unmarked): 3.13

# batch size: 2; output MIC ECΔtolC MH+CCCP per entry
1. CC1(C)SC2C(NC(=O)C(NC(=O)C3=C(O)C4(CC4)NC3=O)c3ccccc3)C(=O)N2C1C(=O)O (centres unmarked)
2. CC1(C)SC2C(NC(=O)C(NC(=O)C3=C(O)C(Cc4ccccc4)NC3=O)c3ccccc3)C(=O)N2C1C(=O)O (centres unmarked)

Response:
1.56
1.56

# batch size: 6; output MIC ECΔtolC MH+CCCP per entry
1. CC1(C)SC2C(NC(=O)C(NC(=O)C3=C(O)C(c4ccccc4)NC3=O)c3ccccc3)C(=O)N2C1C(=O)O (centres unmarked)
2. CC1(C)SC2C(NC(=O)C(NC(=O)C3=C(O)CNC3=O)c3ccccc3)C(=O)N2C1C(=O)O (centres unmarked)
3. CC(C)(C)OCC1NC(=O)C(C(=O)NC(C(=O)NC2C(=O)N3C2SC(C)(C)C3C(=O)O)c2ccccc2)=C1O (centres unmarked)
4. CC1(C)SC2C(NC(=O)C(NC(=O)C3=C(O)C(Cc4ccc(O)cc4)NC3=O)c3ccccc3)C(=O)N2C1C(=O)O (centres unmarked)
5. CC1(C)SC2C(NC(=O)C(NC(=O)C3=C(O)C(Cc4ccc([N+](=O)[O-])cc4)NC3=O)c3ccccc3)C(=O)N2C1C(=O)O (centres unmarked)
6. CC1(C)SC2C(NC(=O)C(NC(=O)C3=C(O)C(Cc4ccsc4)NC3=O)c3ccccc3)C(=O)N2C1C(=O)O (centres unmarked)

Response:
1: 1.56; 2: 3.13; 3: 6.25; 4: 0.78; 5: 1.56; 6: 0.78

----------
I'd be grateful if you could share measured MIC for these entries.
Tested on: P. aeruginosa PA01
Experimental Details: MIC, microbroth dilution in Mueller-Hinton broth
Format: cell-based, Pseudomonas aeruginosa
Test Conditions: Pseudomonas aeruginosa, PA01, read-out: MIC PA MH+BP
Numbers only, in µg/mL.

CN1CC(O)=C(C(=O)NC(C(=O)NC2C(=O)N3C2SC(C)(C)C3C(=O)O)c2ccccc2)C1=O (centres unmarked): 12.5
CC(C)CC1NC(=O)C(C(=O)NC(C(=O)NC2C(=O)N3C2SC(C)(C)C3C(=O)O)c2ccccc2)=C1O (centres unmarked): 12.5
CC1(C)S[C@@H]2[C@H](NC(=O)C(C(=O)O)c3ccccc3)C(=O)N2[C@H]1C(=O)O (some centres unmarked) [carbenicillin, reference compound]: 50

Alright, here's another molecule for you.
Request: Which MIC is reported with P. aeruginosa PA01 for this entry: CC(C)(C)OCC1NC(=O)C(C(=O)NC(C(=O)NC2C(=O)N3C2SC(C)(C)C3C(=O)O)c2ccccc2)=C1O (centres unmarked) ?
Response: 12.5

----------
System: E. coli BW25113 ΔtolC derivative JW5503-1
Experimental Details: MIC, microbroth dilution in Mueller-Hinton broth
Type: cell-based, Escherichia coli
Test Conditions: {}
Endpoint Name: MIC ECΔtolC MH+CCCP (µg/mL)
Numbers only, in µg/mL.

Solved entries:
CC(C)(C)Oc1ccc(CC2NC(=O)C(C(=O)NC(C(=O)NC3C(=O)N4C3SC(C)(C)C4C(=O)O)c3ccccc3)=C2O)cc1 (stereo not drawn): 1.56
CN1CC(O)=C(C(=O)NC(C(=O)NC2C(=O)N3C2SC(C)(C)C3C(=O)O)c2ccccc2)C1=O (stereo not drawn): 6.25

Alright, here's another molecule for you.
Request: Item under review: CC1(C)SC2C(NC(=O)C(NC(=O)C3=C(O)C(Cc4ccco4)NC3=O)c3ccccc3)C(=O)N2C1C(=O)O (stereo not drawn) . Reported MIC ECΔtolC MH+CCCP?
Response: 1.56

----------
Tested on: E. coli BW25113 ΔtolC derivative JW5503-1
Experimental Details: MIC, microbroth dilution in Mueller-Hinton broth
Assay type: cell-based, Escherichia coli
Test Conditions: Escherichia coli, BW25113, read-out: MIC ECΔtolC
Endpoint Name: MIC (µg/mL)
Give bare numbers, in µg/mL.

CC(C)(C)Oc1ccc(CC2NC(=O)C(C(=O)NC(C(=O)NC3C(=O)N4C3SC(C)(C)C4C(=O)O)c3ccccc3)=C2O)cc1 (stereo not drawn): 6.25

# batch size: 4; output MIC per entry
1. CC1(C)SC2C(NC(=O)C(NC(=O)C3=C(O)CN(c4ccccc4)C3=O)c3ccccc3)C(=O)N2C1C(=O)O (stereo not drawn)
2. CC(C)(C)OCC1NC(=O)C(C(=O)NC(C(=O)NC2C(=O)N3C2SC(C)(C)C3C(=O)O)c2ccccc2)=C1O (stereo not drawn)
3. CCN1CCN(C(=O)N[C@@H](C(=O)N[C@@H]2C(=O)N3[C@@H]2SC(C)(C)[C@@H]3C(=O)O)c2ccccc2)C(=O)C1=O [piperacillin, reference compound]
4. CC1(C)SC2C(NC(=O)C(NC(=O)C3=C(O)C(Cc4ccsc4)NC3=O)c3ccccc3)C(=O)N2C1C(=O)O (stereo not drawn)

Response:
[3.13, 12.5, 1.56, 1.56]

Request: Item under review: CC1(C)S[C@@H]2[C@H](NC(=O)C(C(=O)O)c3ccccc3)C(=O)N2[C@H]1C(=O)O (stereo partly drawn) [carbenicillin, reference compound] . Reported MIC?
Response: 0.09

----------
Test system: E. coli BW25113 ΔtolC derivative JW5503-1
Experimental Details: MIC, microbroth dilution in Mueller-Hinton broth
Type: cell-based, Escherichia coli
Test Conditions: Escherichia coli, BW25113, read-out: MIC ECΔtolC
I'd be grateful if you could share measured MIC for these entries.
Answers are plain numbers, in µg/mL.

Solved entries:
CC1(C)SC2C(NC(=O)C(NC(=O)C3=C(O)C(Cc4ccccc4)NC3=O)c3ccccc3)C(=O)N2C1C(=O)O (stereo not shown) [Compound 2781]: 3.13
CC(C)CC1NC(=O)C(C(=O)NC(C(=O)NC2C(=O)N3C2SC(C)(C)C3C(=O)O)c2ccccc2)=C1O (stereo not shown) [Compound 1903]: 6.25
CC1(C)SC2C(NC(=O)C(NC(=O)C3=C(O)C(c4ccccc4)NC3=O)c3ccccc3)C(=O)N2C1C(=O)O (stereo not shown) [Compound 2745]: 3.13

Alright, here's another compound for you.
Request: Item under review: CC1(C)SC2C(NC(=O)C(NC(=O)C3=C(O)C4CCCN4C3=O)c3ccccc3)C(=O)N2C1C(=O)O (stereo not shown) [Compound 2780] . Reported MIC?
Response: 6.25

----------
Here's a batch of compounds along with measured MIC for E. coli BW25113 ΔampC derivative JW4111-2.
Answers are plain numbers, in µg/mL.

Solved entries:
CC1(C)SC2C(NC(=O)C(NC(=O)C3=C(O)C(c4ccccc4)NC3=O)c3ccccc3)C(=O)N2C1C(=O)O (stereo not drawn) [Compound 2745]: 6.25
CC(C)CC1NC(=O)C(C(=O)NC(C(=O)NC2C(=O)N3C2SC(C)(C)C3C(=O)O)c2ccccc2)=C1O (stereo not drawn) [Compound 1903]: 6.25
CC1(C)SC2C(NC(=O)C(NC(=O)C3=C(O)CN(c4ccccc4)C3=O)c3ccccc3)C(=O)N2C1C(=O)O (stereo not drawn) [Compound 2919]: 12.5

# batch size: 2; output MIC per entry
1. CCN1CCN(C(=O)N[C@@H](C(=O)N[C@@H]2C(=O)N3[C@@H]2SC(C)(C)[C@@H]3C(=O)O)c2ccccc2)C(=O)C1=O [piperacillin, reference compound]
2. CC1NC(=O)C(C(=O)NC(C(=O)NC2C(=O)N3C2SC(C)(C)C3C(=O)O)c2ccccc2)=C1O (stereo not drawn) [Compound 2746]

Response:
1.56
50

Request: Item under review: CC(C)(C)OCC1NC(=O)C(C(=O)NC(C(=O)NC2C(=O)N3C2SC(C)(C)C3C(=O)O)c2ccccc2)=C1O (stereo not drawn) [Compound 1940] . Reported MIC?
Response: 12.5
